Test system: HeLa
experiment.notes: Antiproliferative activity against human HeLa cells assessed as reduction in cell viability after 48 hrs by MTT assay
Assay type: functional, cell-based
measured.quantity: IC50 (µM)

| molecule | bound.operator | meas.value |
| --- | --- | --- |
| c1ccc(/N=C2\CCC[C@@H]3[C@H]4CCCN5CCC[C@@H](CN23)[C@@H]45)cc1 | > | 100 |
| N#Cc1ccccc1/N=C1\CCC[C@@H]2[C@H]3CCCN4CCC[C@@H](CN12)[C@@H]34 | > | 100 |
| O=C1CCCC[C@@H]2[C@H]3CCCN4CCC[C@@H](CN12)[C@@H]34 | > | 100 |
| Nc1c2c(nc3ccc([N+](=O)[O-])cc13)N1C[C@@H]3CCCN4CCC[C@@H]([C@H]34)[C@H]1CC2 | = | 69.2 |
| Clc1ccc(/N=C2\CCC[C@@H]3[C@H]4CCCN5CCC[C@@H](CN23)[C@@H]45)cc1 | > | 100 |
| CC(C)c1ccc(/N=C2\CCC[C@@H]3[C@H]4CCCN5CCC[C@@H](CN23)[C@@H]45)cc1 | = | 93.3 |
| Nc1c2c(nc3ccc(Br)cc13)N1C[C@@H]3CCCN4CCC[C@@H]([C@H]34)[C@H]1CC2 | = | 6.9 |
| Nc1c2c(nc3ccccc13)N1C[C@@H]3CCCN4CCC[C@@H]([C@H]34)[C@H]1CC2 | = | 23.3 |
| COc1ccc2nc3c(c(N)c2c1)CC[C@@H]1[C@H]2CCCN4CCC[C@@H](CN31)[C@@H]24 | = | 18 |
| c1ccc(-c2ccc(/N=C3\CCC[C@@H]4[C@H]5CCCN6CCC[C@@H](CN34)[C@@H]56)cc2)cc1 | = | 23.7 |
| Nc1c2c(nc3ccc(C(F)(F)F)cc13)N1C[C@@H]3CCCN4CCC[C@@H]([C@H]34)[C@H]1CC2 | = | 19.6 |
| CCOc1ccc(/N=C2\CCC[C@@H]3[C@H]4CCCN5CCC[C@@H](CN23)[C@@H]45)cc1 | > | 100 |
| O=C1CCC[C@@H]2[C@H]3CCCN4CCC[C@@H](CN12)[C@@H]34 | = | 4330 |
| c1ccc(Oc2ccc(/N=C3\CCC[C@@H]4[C@H]5CCCN6CCC[C@@H](CN34)[C@@H]56)cc2)cc1 | = | 33.7 |
| Cc1c(/N=C2\CCC[C@@H]3[C@H]4CCCN5CCC[C@@H](CN23)[C@@H]45)cccc1[N+](=O)[O-] | > | 100 |

---

Recorded IC50, one value per entry.
Tested on: HeLa
experiment.notes: Antiproliferative activity against human HeLa cells assessed as reduction in cell viability after 48 hrs by MTT assay
Format: functional, cell-based
measured.quantity: IC50 (µM)

| molecule | assayed.target | bound.operator | meas.value |
| --- | --- | --- | --- |
| Nc1c2c(nc3ccc(F)cc13)N1C[C@@H]3CCCN4CCC[C@@H]([C@H]34)[C@H]1CC2 | HeLa | = | 18.8 |
| Cc1ccc2nc3c(c(N)c2c1)CC[C@@H]1[C@H]2CCCN4CCC[C@@H](CN31)[C@@H]24 | HeLa | = | 13.4 |
| O=C1C[C@@H]2[C@H]3CCCN4CCC[C@@H](CN12)[C@@H]34 | HeLa | > | 100 |
| Nc1c2c(nc3ccc(Cl)cc13)N1C[C@@H]3CCCN4CCC[C@@H]([C@H]34)[C@H]1CC2 | HeLa | = | 8.9 |

Where do the numbers come from? From ChEMBL document CHEMBL4627249.
